Assignment: determine reported normalized growth for the given compounds.
assay: chemical genetic growth profiling, strain panel (AID 1159580);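 further: tested at 20 µM; growth read once vehicle control cultures reached saturation at 30 °C; 1 = growth at the plate median or of vehicle wells; lower values mean less growth of the strain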; conditions: S. cerevisiae deletion strains, growth OD, locus YNL175C, strain NOP13, hits give low values
Hit rate of the full screen: of about 5,500 compounds, about 2,000 (36%) were called active. About 18% were inconclusive and are not listed. The list shows a part of the results.
Answers are plain numbers.

Worked cases, normalized growth given:
1. CC(=O)OCC1=C(C(=O)O)N2C(=O)[C@@H](NC(=O)CCC[C@@H](N)C(=O)O)[C@H]2SC1; 1.01
2. CC(C)=CCC/C(C)=C/CC/C(C)=C/CSc1ccccc1C(=O)O; 0.956

Provide normalized growth values for the following items, in order.
1. N[C@H](C(=O)O)[C@H](O)C(=O)O
2. CCCCCCCCCCC/C=C\C(C)(C)/C=C\CCCC(=O)O
3. CNc1ncnc2c1ncn2[C@@H]1O[C@H](CO)[C@H](O)C1O (some centres not stated)

1.01
1.01
0.996

Provide normalized growth values for the following items, in order.
1. Nc1ccc(CCNc2ncnc3c2ncn3C2OC(CO)C(O)C2O)cc1 (configuration not stated)
2. Cc1oncc1C(=O)Nc1ccc(C(F)(F)F)cc1
3. C[C@]12CC[C@H]3[C@@H](CCC4C[C@H](O)CC[C@@]43C)[C@@H]1CC[C@@H]2O (some centres not stated)
4. O=NN(CCCl)C(=O)NCCCl
5. O=C(O)CCCCCCCC(=O)O
6. NCCCCC(=O)O
7. COc1ccc2c(c1)c(CC(=O)O)c(C)n2Cc1ccc(Cl)cc1
8. NC1(C(=O)O)CCCCC1

1: 0.985; 2: 0.934; 3: 1.02; 4: 0.984; 5: 1.01; 6: 1.03; 7: 0.966; 8: 1.01

###

test: chemical genetic growth profiling, strain panel (AID 1159580);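 further: tested at 20 µM; growth read once vehicle control cultures reached saturation at 30 °C; 1 = growth at the plate median or of vehicle wells; lower values mean less growth of the strain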; conditions: S. cerevisiae deletion strains, growth OD, locus YDL028C, strain MPS1, hits give low values
The campaign covered roughly 5,500 compounds. About 2,000 (36%) were called active. Not shown: some 18% with an inconclusive outcome. The list shows a part of the results.
Assignment: determine reported normalized growth for the given compounds.

Worked cases, normalized growth given:
1. Clc1cccc(Nc2ncc(-c3ccc4c(c3)OCCCO4)s2)c1; 0.956 (inactive)
2. Brc1ccc(-c2csc(-c3cccnc3)n2)cc1; 0.916 (inactive)
3. CNC(=O)Sc1c(-c2ccc(Cl)cc2)nn(C(=O)NC)c1SC; 0.941 (inactive)
4. Clc1ccc(CSc2nccn2-c2cc(Cl)ccc2Cl)cc1; 0.949 (inactive)
5. O=C(Nc1cc(C(F)(F)F)cc(C(F)(F)F)c1)C(Cl)(Cl)Cl; 0.966 (inactive)
6. Clc1ccccc1-c1csc(-c2ccncc2)n1; 0.966 (inactive)

Provide normalized growth values for the following items, in order.
1. N#Cc1ccc(Oc2sccc2[N+](=O)[O-])cc1
2. O=[N+]([O-])c1ccsc1Oc1cccc(C(F)(F)F)c1
3. N#Cc1cccc(CSc2nc3ccc(C(F)(F)F)cc3[nH]2)c1

1: 0.978 (inactive); 2: 0.989 (inactive); 3: 0.978 (inactive)

###

assay: chemical genetic growth profiling, strain panel (AID 1159580);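 further: tested at 20 µM; growth read once vehicle control cultures reached saturation at 30 °C; 1 = growth at the plate median or of vehicle wells; lower values mean less growth of the strain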; details: S. cerevisiae deletion strains, growth OD, locus YMR205C, strain PFK2
About 2,000 (36%) of roughly 5,500 compounds were called active. Another 18% or so got no clear call; they are omitted. Rule as the data show it: active = normalized growth mostly below about 0.91 (no sharp cut-off); inconclusive = no clear call, values can overlap the other calls; inactive = mostly above about 0.92. Some of the results follow.
Outcome (select one): TRUE (active), FALSE (inactive)

Solved cases below.
1) N[C@@H](C(=O)O)[C@@H](O)[C@H](O)[C@H](O)CO; FALSE
2) Cc1ccc(C(=O)c2ccc(CC(=O)O)n2C)cc1; FALSE
3) O=C1CCCN1CC#CCN1CCCC1; FALSE
4) Clc1ccc(CSC(Cn2ccnc2)c2ccc(Cl)cc2Cl)cc1 (stereo not drawn); TRUE
5) COC1C=CC23c4cc5c(cc4CN(CC2O)[C@@H]3C1)OCO5 (stereo partly drawn); FALSE
6) O=C(O)C1CCCNC1 (stereo not drawn); FALSE
7) Clc1ccc(C(Cn2ccnc2)OCc2ccsc2Cl)c(Cl)c1 (stereo not drawn); TRUE
8) COC[C@]12CN(C=O)C3[C@@H]4[C@H](OC)C1[C@]3(C1CC3(O)C(OC)C(O)C4(OC(C)=O)C1C3OC(=O)c1ccccc1)[C@@H](OC)C[C@H]2O (stereo partly drawn); FALSE
9) CN(C)C(=O)Oc1ccc[n+](C)c1; FALSE
10) Nc1nc(F)nc2c1ncn2[C@@H]1O[C@H](COP(=O)(O)O)[C@@H](O)[C@@H]1O; FALSE

Identify the outcome logged in this assay for the compound shown: NCCCCCC(=O)O FALSE

Identify the outcome logged in this assay for the compound shown: CC(=O)C1CCC2C3CCC4C[C@H](O)CCC4(C)C3C[C@H](O)C12C (stereo partly drawn) FALSE

Identify the outcome logged in this assay for the compound shown: C[C@]12CCC3c4ccc(O)cc4CCC3C1CCC2=O (stereo partly drawn) FALSE

Identify the outcome logged in this assay for the compound shown: O=C(O)CCCCCCCC(=O)O FALSE

Identify the outcome logged in this assay for the compound shown: COC(=O)[C@@H]1OC(=O)C2OC23[C@@]1(C)CCC1[C@]2(C)C(C[C@@H](O)[C@]13C)C(C)(C)[C@H](OC(C)=O)C[C@@H]2OC(C)=O (stereo partly drawn) FALSE

Identify the outcome logged in this assay for the compound shown: Cc1nnc(NS(=O)(=O)c2ccc(N)cc2)s1 FALSE

Identify the outcome logged in this assay for the compound shown: COc1ccnc(CS(=O)c2nc3ccc(OC(F)F)cc3[nH]2)c1OC (stereo not drawn) FALSE

Identify the outcome logged in this assay for the compound shown: CCC(=O)OC1[C@@H]2CC3=C4CC(=O)O[C@@H](c5ccoc5)[C@]4(C)CCC3[C@@](C)(C2=O)[C@@H](CC(=O)OC)C1(C)C (stereo partly drawn) FALSE

Identify the outcome logged in this assay for the compound shown: O=NN(CCCl)C(=O)NCCCl FALSE
